Listed next: entries and their corresponding MIC.
tested on: Mortierella alpina; assay: Antibacterial activity against Mortierella alpina ATCC 32221 after 16-20 hrs by microdilution broth method; type: functional

query_smiles: NCCCC(=O)N[C@H]1[C@H](O)[C@@H](N)[C@@H](O[C@H]2[C@H](O)[C@@H](O[C@H]3O[C@H](CO)[C@@H](O)[C@H](N)[C@H]3O)[C@H](N)C[C@@H]2N)O[C@@H]1CN
experimental_system: Mortierella alpina
MIC: > 128 µg/mL
--
query_smiles: NC[C@H]1O[C@H](O[C@H]2[C@H](O)[C@@H](O[C@H]3O[C@H](CO)[C@@H](O)[C@H](N)[C@H]3O)[C@H](N)C[C@@H]2N)[C@H](N)[C@@H](O)[C@@H]1NC(=O)C1CCNCC1
experimental_system: Mortierella alpina
MIC: > 128 µg/mL
--
query_smiles: CN(C)[C@H]1[C@H](O)[C@@H](N)[C@@H](O[C@H]2[C@H](O)[C@@H](O[C@H]3O[C@H](CO)[C@@H](O)[C@H](N)[C@H]3O)[C@H](N)C[C@@H]2N)O[C@@H]1CN
experimental_system: Mortierella alpina
MIC: > 128 µg/mL

* * *

MIC values by entry
system: Staphylococcus aureus; test: Antibacterial activity against Staphylococcus aureus ATCC 29213 after 16-20 hrs by microdilution broth method; format: functional

query_smiles: NCCCC(=O)N[C@H]1[C@H](O)[C@@H](N)[C@@H](O[C@H]2[C@H](O)[C@@H](O[C@H]3O[C@H](CO)[C@@H](O)[C@H](N)[C@H]3O)[C@H](N)C[C@@H]2N)O[C@@H]1CN
experimental_system: Staphylococcus aureus
u: µg/mL
MIC: 0.25

query_smiles: NC[C@H]1O[C@H](O[C@H]2[C@H](O)[C@@H](O[C@H]3O[C@H](CO)[C@@H](O)[C@H](N)[C@H]3O)[C@H](N)C[C@@H]2N)[C@H](N)[C@@H](O)[C@@H]1NC(=O)C1CCNCC1
experimental_system: Staphylococcus aureus
u: µg/mL
MIC: 1

query_smiles: NC[C@H]1O[C@H](O[C@H]2[C@H](O)[C@@H](O[C@H]3O[C@H](CO)[C@@H](O)[C@H](N)[C@H]3O)[C@H](N)C[C@@H]2N)[C@H](N)[C@@H](O)[C@@H]1NC(=O)C1CCCCC1
experimental_system: Staphylococcus aureus
u: µg/mL
MIC: 1

query_smiles: CC(=O)N[C@H]1[C@H](O)[C@@H](N)[C@@H](O[C@H]2[C@H](O)[C@@H](O[C@H]3O[C@H](CO)[C@@H](O)[C@H](N)[C@H]3O)[C@H](N)C[C@@H]2N)O[C@@H]1CN
experimental_system: Staphylococcus aureus
u: µg/mL
MIC: 2

query_smiles: CN(C)[C@H]1[C@H](O)[C@@H](N)[C@@H](O[C@H]2[C@H](O)[C@@H](O[C@H]3O[C@H](CO)[C@@H](O)[C@H](N)[C@H]3O)[C@H](N)C[C@@H]2N)O[C@@H]1CN
experimental_system: Staphylococcus aureus
u: µg/mL
MIC: 32

* * *

system: Staphylococcus aureus; test: Antibacterial activity against Staphylococcus aureus ATCC 29213 after 16-20 hrs by microdilution broth method; assay type: functional

query_smiles: Cc1ccccc1C(=O)NCC(=O)N[C@H]1[C@H](O)[C@@H](N)[C@@H](O[C@H]2[C@H](O)[C@@H](O[C@H]3O[C@H](CO)[C@@H](O)[C@H](N)[C@H]3O)[C@H](N)C[C@@H]2N)O[C@@H]1CN
MIC: 2 µg/mL
--
query_smiles: NC[C@@H]1O[C@@H](O[C@H]2[C@H](O)[C@@H](O[C@H]3O[C@H](CO)[C@@H](O)[C@H](N)[C@H]3O)[C@H](N)C[C@@H]2N)[C@@H](O)[C@H](O)[C@H]1O
MIC: 2 µg/mL
--
query_smiles: NC[C@H]1O[C@H](O[C@H]2[C@H](O)[C@@H](O[C@H]3O[C@H](CO)[C@@H](O)[C@H](N)[C@H]3O)[C@H](N)C[C@@H]2N)[C@H](N)[C@@H](O)[C@@H]1O
MIC: 1 µg/mL
